measuredOn: human c-MER catalytic domain (Homo sapiens (Human))
Sequence (Q12866 587-858): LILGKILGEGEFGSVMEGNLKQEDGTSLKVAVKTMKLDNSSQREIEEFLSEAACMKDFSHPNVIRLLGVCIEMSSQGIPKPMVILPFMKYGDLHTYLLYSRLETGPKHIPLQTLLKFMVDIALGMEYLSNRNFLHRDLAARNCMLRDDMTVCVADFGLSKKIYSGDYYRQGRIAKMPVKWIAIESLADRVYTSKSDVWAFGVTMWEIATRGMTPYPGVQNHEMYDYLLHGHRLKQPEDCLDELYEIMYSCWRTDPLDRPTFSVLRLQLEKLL
measurementNotes: LanthaScreen TR-FRET kinase assay, c-MER
recordedConditions: read-out: Mer TK inhibition (IC50); Biochemical IC50, TR-FRET, 10 uM ATP
recordedEndpoint: IC50

itemsmiles=CN(C)CCCc1ccc(CO[C@H]2CCC[C@@H]2NC(=O)c2cc(-c3cnn(C)c3)cnc2N)cc1 recordedendpoint=IC50 datavalue="> 1000 nM"
itemsmiles=Cn1cc(-c2cnc(N)c(C(=O)N[C@H]3CCC[C@@H]3OCc3cccc(Br)c3)c2)cn1 recordedendpoint=IC50 datavalue="> 1000 nM"
itemsmiles=CCc1cc(CO[C@H]2CCC[C@@H]2NC(=O)c2cc(-c3cnn(C)c3)cnc2N)ccc1C recordedendpoint=IC50 datavalue="< 10 nM"
itemsmiles=CCc1ccc(-c2ccc(CO[C@H]3CCC[C@@H]3NC(=O)c3cc(-c4cnn(C)c4)cnc3N)cc2)cc1 recordedendpoint=IC50 datavalue="< 10 nM"
